run-description: Surface normalized dissolution of ASD tablets (release, limit of congruency)
Assay type: physicochemical
condition: ASD containing 5% w/w of the plasticizer
Counter-ions that a name gives are not always drawn.
Catalogue of limit of congruency (LoC) of ATZ-PVPVA ASDs readings, one per entry.
Give just the number in % DL; leave the unit off.

Solved cases below.
Data point: CC(=O)OCC(COC(C)=O)OC(C)=O [GTA, Glycerol triacetate] ; limit of congruency (LoC) of ATZ-PVPVA ASDs = 10

Data point: OCC(O)CO ; limit of congruency (LoC) of ATZ-PVPVA ASDs = 7.5

Data point: CCOC(=O)CC(CC(=O)OCC)(OC(C)=O)C(=O)OCC [TEAC, triethyl acetyl citrate] ; limit of congruency (LoC) of ATZ-PVPVA ASDs = 25

Data point: CCCCOC(=O)CC(CC(=O)OCCCC)(OC(C)=O)C(=O)OCCCC [TBAC, Tributyl-o-acetylcitrate] ; limit of congruency (LoC) of ATZ-PVPVA ASDs = 25

Data point: CC(=O)OCC(CO)OC(C)=O (stereo not drawn) [GDA, glycerol diacetate] ; limit of congruency (LoC) of ATZ-PVPVA ASDs = 7.5

Data point: CCCC(=O)OCC(COC(=O)CCC)OC(=O)CCC [GTB, Glycerol tributyrate] ; limit of congruency (LoC) of ATZ-PVPVA ASDs = 25

***
Data point: CCCCOC(=O)CC(O)(CC(=O)OCCCC)C(=O)OCCCC [TBC, Tri-n-butyl citrate] ; limit of congruency (LoC) of ATZ-PVPVA ASDs = 25

Data point: O=C(O)CC(O)(CC(=O)O)C(=O)O ; limit of congruency (LoC) of ATZ-PVPVA ASDs = 7.5

Data point: CCOC(=O)CC(O)(CC(=O)OCC)C(=O)OCC [TEC, triethyl citrate] ; limit of congruency (LoC) of ATZ-PVPVA ASDs = 20
